# procedureSummary: NCI Yeast Anticancer Drug Screen. Data for the mec2-1 strain (AID 157)
# conditionContext: S. cerevisiae mec2-1 strain, stronger effect = higher value; at 50.0 µM unless noted
This is part of a sample that, as a whole, favours compounds with a hit. Of some 79,000 tested, about 15% had one in any assay.
propertyName: growth inhibition (%)
Write the answer as a number in %, unit excluded.

Item: CCCCC/C([O-])=C1/C(=O)N(c2ccccc2)N=C1C.CCCCC/C([O-])=C1/C(=O)N(c2ccccc2)N=C1C.[Cu+2] | growth inhibition: 0.75

Item: COc1cc(/C=C/C(=O)O)ccc1O | growth inhibition: -17.1

Item: CCC(C)C/C(C)=N/Nc1ccc([N+](=O)[O-])cc1[N+](=O)[O-] (stereo not drawn) | growth inhibition: 7.85
